method.description: Pharmacokinetics after oral administration to rats with jugular vein and portal vein catheters
Type: in vivo, Male Sprague-Dawley rats
run.conditions: male, Sprague-Dawley, rat, in vivo, po, 30 mg/kg, Portal AUClast, parent compound

[
  {
    "compound": "CC/C=C\\C/C=C\\C/C=C\\C/C=C\\C/C=C\\CCCC(=O)N[C@H]1CCN(C(=O)c2cccnc2)C1",
    "AUC(0-t) / ng·h/mL": 1440
  },
  {
    "compound": "CC/C=C\\C/C=C\\C/C=C\\C/C=C\\C/C=C\\CCCC(=O)N1CCN(C(=O)c2cccnc2)CC1",
    "AUC(0-t) / ng·h/mL": 3560
  },
  {
    "compound": "CC/C=C\\C/C=C\\C/C=C\\C/C=C\\C/C=C\\CCCC(=O)N(C)CCNC(=O)c1cccnc1",
    "AUC(0-t) / ng·h/mL": 5060
  },
  {
    "compound": "CC/C=C\\C/C=C\\C/C=C\\C/C=C\\C/C=C\\CCCC(=O)NCCNC(=O)c1cccnc1 [Compound I-8, reference compound]",
    "AUC(0-t) / ng·h/mL": 662
  },
  {
    "compound": "CC/C=C\\C/C=C\\C/C=C\\C/C=C\\C/C=C\\CCCC(=O)N1CC[C@H](NC(=O)c2cccnc2)C1",
    "AUC(0-t) / ng·h/mL": 6640
  }
]
